Provide the recorded Activity for the entries that follow.
- Tested on: Pseudomonas aeruginosa
- measurement_description: Antibacterial activity against Pseudomonas aeruginosa assessed as bacterial growth at 10 uM incubated for 24 hrs relative to control
- Type: functional
Expressed in %, but write only the number.

Q: Need Activity of CCCC(O)CC(=O)/C=C/c1ccc(O)c(O)c1 (configuration not stated) , thanks.
Result: 99

Q: Entry CCCC(=O)NC1CCCC1 please
Result: 95

Q: Likewise for CCCCCC(=O)C#Cc1ccc(F)c(F)c1 ?
Result: 100

Q: Follow-up item: CCC[C@H](O)C#Cc1ccc(F)c(F)c1
Result: 98

Q: What about CCCC(=O)C#Cc1ccc(F)c(F)c1 ?
Result: 103

Q: Then this compound: CCCC(O)CC(=O)/C=C/c1cccc(OC)c1 (configuration not stated)
Result: 96

Q: Try this compound too: CCCCC(=O)C#Cc1ccc(F)c(F)c1
Result: 100

* * *

- test_system: HTH-type quorum-sensing regulator RhlR (Pseudomonas aeruginosa (strain ATCC 15692 / PAO1 / 1C / PRS 101 / LMG12228))
- measurement_description: Antagonist activity at Pseudomonas aeruginosa RhlR expressed in Escherichia coli DH5alpha assessed as relative protein activity at 100 uM incubated for 1.5 hrs in presence of N-butyryl-L-homoserine lactone by luminescence reporter gene assay relative to control
- Design: scale not given: the % may be the effect or the level left
test_readout: Activity (%)
Return type: number; implicit unit %.

Q: Reported Activity, molecule CCCCCCCC(O)CC(=O)CCc1ccc(O)c(OC)c1 (centres undefined) : ____
Result: 90

Q: And CCCCCC(=O)CCc1ccc(F)c(F)c1 ?
Result: 55

Q: Repeat with CCCC(=O)NC1CCCC1
Result: 54

Q: Request: CCCC[C@H](O)C#Cc1ccc(F)c(F)c1
Result: 64

* * *

Could you please report measured Activity for the items listed next?
- test_system: HTH-type quorum-sensing regulator RhlR (Pseudomonas aeruginosa (strain ATCC 15692 / PAO1 / 1C / PRS 101 / LMG12228)) (UniProt P54292)
- Sequence (P54292 whole entry): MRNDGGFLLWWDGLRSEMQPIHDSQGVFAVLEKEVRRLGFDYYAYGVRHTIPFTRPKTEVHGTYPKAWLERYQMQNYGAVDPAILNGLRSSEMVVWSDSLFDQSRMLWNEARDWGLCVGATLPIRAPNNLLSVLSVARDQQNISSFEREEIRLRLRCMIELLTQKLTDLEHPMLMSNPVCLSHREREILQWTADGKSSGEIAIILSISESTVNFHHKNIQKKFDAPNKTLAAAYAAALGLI
- measurement_description: Antagonist activity at RhlR in Pseudomonas aeruginosa assessed as rhamnolipid production at 100 uM incubated for 24 hrs by Orcinol staining based assay relative to control
- Design: scale not given: the % may be the effect or the level left
Form entry: value (%) — number only.

Q: Name the reported Activity value associated with the compound CCCCC(=O)C#Cc1ccc(F)c(F)c1
Result: 49

Q: Another: CCCC(O)CC(=O)/C=C/c1ccc(F)c(F)c1 (centres undefined)
Result: 50

Q: How about CCCC(O)C#Cc1ccc(F)c(F)c1 (racemic) ?
Result: 49

Q: What do we get for CCC[C@H](O)C#Cc1ccc(F)c(F)c1 ?
Result: 52

* * *

- test_system: HTH-type quorum-sensing regulator RhlR (Pseudomonas aeruginosa (strain ATCC 15692 / PAO1 / 1C / PRS 101 / LMG12228)) (UniProt P54292)
- measurement_description: Modulation of RhlR in Pseudomonas aeruginosa assessed as biofilm formation at 10 uM incubated for 24 hrs under static condition by crystal violet staining based assay relative to control
The source made the active and inactive calls. The rule behind the calls is not given here.
test_readout: Activity

molecule: CCC[C@@H](O)C#Cc1ccc(F)c(F)c1
Activity: 74%

molecule: CCCC(O)CC(=O)/C=C/c1ccc(O)cc1 (stereo unspecified)
Activity: Active

molecule: CCCC(O)CC(=O)/C=C/c1cccc(OC)c1 (stereo unspecified)
Activity: 88%

molecule: CCCC(O)CC(=O)/C=C/c1ccc(O)c(O)c1 (stereo unspecified)
Activity: 84%

Q: Recorded Activity of CCCC(O)CC(=O)/C=C/c1ccc(O)c(OC)c1 (stereo unspecified) , please.
Result: 82%

Q: Now the molecule CCCCCCCCC(O)CC(=O)CCc1ccc(O)c(OC)c1 (stereo unspecified)
Result: Active
